- test.protocol: Phase I clinical trial: plasma pharmacokinetics
- Type: in vivo, human
- condition.info: human, plasma, oral; 13 mg Q5D
assay.readout: Cmax (nM)
The reply should be a number in nM, with the unit left off.

Recorded Cmax for "CC(C)n1nc(-c2ccc3oc(N)nc3c2)c2c(N)ncnc21" , please?
300

###

- system.tested: mTOR (Homo sapiens)
- Construct: purchased Invitrogen
- test.protocol: mTOR kinase inhibition assay
- Type: biochemical
- condition.info: Table 1; read-out: mTOR IC50
assay.readout: IC50

Recorded IC50 for Nc1noc2ccc(-c3nn(CC(=O)N4CCOCC4)c4ncnc(N)c34)cc12 [Compound 17] , please?
> 10 µM

Request: CNc1noc2cc(-c3nn(C(C)C)c4ncnc(N)c34)ccc12 [Compound 13]
< 10 µM

Request: CC(C)n1nc(-c2ccc3nc(N)oc3c2)c2c(N)ncnc21 [Compound 4]
< 1 µM

Request: CC(C)n1nc(-c2ccc3c(N)noc3c2)c2c(N)ncnc21 [Compound 12]
< 1 µM

Request: COC(=O)Nc1noc2cc(-c3nn(C(C)C)c4ncnc(N)c34)ccc12 [Compound 20]
< 10 µM

Request: Nc1nc2cc(-c3cn(C4CCOCC4)c4ncnc(N)c34)ccc2o1 [Compound 9]
< 0.1 µM

Request: CC(C)n1nc(-c2ccc3c(NC4CC4)noc3c2)c2c(N)ncnc21 [Compound 14]
< 10 µM

Request: CC(C)n1nc(-c2ccc3onc(N)c3c2)c2c(N)ncnc21 [Compound 10]
< 10 µM

Request: CC(C)n1nc(-c2ccc3onc(NC4CC4)c3c2)c2c(N)ncnc21 [Compound 16]
> 10 µM

Origin of values: patent US20130209543A1
